B1: CCDC89 (parent)
chain: LNAELEEKMMQEAEKLKAQGEYSR

Variants of: B1
Assay: protein stability index of a GFP-peptide fusion (GPS, HEK-293T) (PSI 1-6); higher = more stable;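 note: lentivirally expressed fusions sorted by FACS into six bins by GFP to DsRed ratio, PSI derived from sequencing read proportions per bin multiplied by bin number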
Conditions: c terminus: a fixed tail appended
Reported values of protein stability index for individual entries
QUANTITY_NAME: protein stability index

construct_sequence="LNAELEEKMMQEAEDLKAQGEYSR [K15D]" recorded_number=5.58
construct_sequence="LNAELEEKCMQEAEKLKAQGEYSR [M9C]" recorded_number=5.52
construct_sequence="LNAEEEEKMMQEAEKLKAQGEYSR [L5E]" recorded_number=5.46
construct_sequence="LNAELEEKMMQEAEKLDAQGEYSR [K17D]" recorded_number=5.47
construct_sequence="LNAELEEKMMQTAEKLKAQGEYSR [E12T]" recorded_number=4.4
construct_sequence="LNAELEEKMMQEAEKLVAQGEYSR [K17V]" recorded_number=4.4
construct_sequence="LNAELEEKMMQEAEKLKAQGEISR [Y22I]" recorded_number=5.29
construct_sequence="LNADLEEKMMQEAEKLKAQGEYSR [E4D]" recorded_number=4.94
construct_sequence="LNAELEEKMMQEAEMLKAQGEYSR [K15M]" recorded_number=5.82
construct_sequence="LNAELESKMMQEAEKLKAQGEYSR [E7S]" recorded_number=4.01
construct_sequence="LNAELEEKDMQEAEKLKAQGEYSR [M9D]" recorded_number=4.89
construct_sequence="LNAELEEKMMQEAEKLKAQGEYSG [R24G]" recorded_number=5.81
construct_sequence="LNAELEEKMMQEAEKLKAQVEYSR [G20V]" recorded_number=5.31
construct_sequence="LNAELEEKMMQEAEKLKAPGEYSR [Q19P]" recorded_number=5.12
construct_sequence="LNAELEEKMMQEAEKLKAQGEQSR [Y22Q]" recorded_number=5.64
construct_sequence="LNAEAEEKMMQEAEKLKAQGEYSR [L5A]" recorded_number=4.86
construct_sequence="LNAEREEKMMQEAEKLKAQGEYSR [L5R]" recorded_number=4.7
construct_sequence="LNALLEEKMMQEAEKLKAQGEYSR [E4L]" recorded_number=4.56
construct_sequence="LNWELEEKMMQEAEKLKAQGEYSR [A3W]" recorded_number=4.58
construct_sequence="LNAEFEEKMMQEAEKLKAQGEYSR [L5F]" recorded_number=4.73
construct_sequence="LNAELEEKMMQEAEKWKAQGEYSR [L16W]" recorded_number=4.6
construct_sequence="LNAELEEKMMQEAEKLKAQGEYAR [S23A]" recorded_number=4.62
construct_sequence="LNAELEEKMMQEAEKLKAQPEYSR [G20P]" recorded_number=5.43
construct_sequence="LNAELEEKMMQEAQKLKAQGEYSR [E14Q]" recorded_number=5.15
construct_sequence="LNAELEEKMMQEAEKLKAQGAYSR [E21A]" recorded_number=4.77
construct_sequence="LGAELEEKMMQEAEKLKAQGEYSR [N2G]" recorded_number=5.14
construct_sequence="LNAELEEKMMQEAEKLKAQYEYSR [G20Y]" recorded_number=4.44
construct_sequence="LNAELEEKMMQEAEHLKAQGEYSR [K15H]" recorded_number=5.2
construct_sequence="LNAELEEKMMQEAEKLKAMGEYSR [Q19M]" recorded_number=4.13
construct_sequence="LNAELEESMMQEAEKLKAQGEYSR [K8S]" recorded_number=3.82
construct_sequence="LNAELEEKMMQEAEKLKAYGEYSR [Q19Y]" recorded_number=2.53
construct_sequence="LNAELEEKMMQEAEKLKAQGEYMR [S23M]" recorded_number=5.11
construct_sequence="LNAELEEKMMQEAEKTKAQGEYSR [L16T]" recorded_number=5.14
construct_sequence="LNAELEEDMMQEAEKLKAQGEYSR [K8D]" recorded_number=4.78
construct_sequence="LNAMLEEKMMQEAEKLKAQGEYSR [E4M]" recorded_number=3.91
construct_sequence="LNAELIEKMMQEAEKLKAQGEYSR [E6I]" recorded_number=4.08
construct_sequence="LNAELEEKMMQEAEKLIAQGEYSR [K17I]" recorded_number=4.72
construct_sequence="LNAELEEKMMQEAEKLKAQGEYSW [R24W]" recorded_number=3.81
construct_sequence="LNAELEEKMMQEQEKLKAQGEYSR [A13Q]" recorded_number=4.5
construct_sequence="LNAELWEKMMQEAEKLKAQGEYSR [E6W]" recorded_number=3.56
construct_sequence="LNAELEEKMMQEAEKLCAQGEYSR [K17C]" recorded_number=4.02
construct_sequence="LNAELEEKMMQEAEKLKAQIEYSR [G20I]" recorded_number=3.68
construct_sequence="LNAELEEKMMQEAEKLKAQGEKSR [Y22K]" recorded_number=5.55
construct_sequence="QNAELEEKMMQEAEKLKAQGEYSR [L1Q]" recorded_number=5.11
construct_sequence="LNAELEEKMMQEAEKLKAQGENSR [Y22N]" recorded_number=5.79
construct_sequence="LNAELEEKMMQEAEKEKAQGEYSR [L16E]" recorded_number=5.79
construct_sequence="LNAELEEKMMQEALKLKAQGEYSR [E14L]" recorded_number=4.5
construct_sequence="LNAELKEKMMQEAEKLKAQGEYSR [E6K]" recorded_number=4.64
construct_sequence="LNAELEEKMMQEANKLKAQGEYSR [E14N]" recorded_number=4.66
construct_sequence="LNRELEEKMMQEAEKLKAQGEYSR [A3R]" recorded_number=4.94
construct_sequence="LNAELEECMMQEAEKLKAQGEYSR [K8C]" recorded_number=5.15
construct_sequence="LNAELEAKMMQEAEKLKAQGEYSR [E7A]" recorded_number=4.87
construct_sequence="LNAELEEKMMQEAEKLKAQGYYSR [E21Y]" recorded_number=5.03
construct_sequence="LNAEYEEKMMQEAEKLKAQGEYSR [L5Y]" recorded_number=4.33
construct_sequence="LNAELEEKMMQEAEKLKACGEYSR [Q19C]" recorded_number=4.66
construct_sequence="LNAELEEKMMQEAEKLKAQGEYSK [R24K]" recorded_number=5.53
construct_sequence="LNAELEEKMMQEAEKLKAQGEYDR [S23D]" recorded_number=5.7
construct_sequence="LNAELEEKMMQEAEKLKAQGKYSR [E21K]" recorded_number=5.46
construct_sequence="LNAELEEKMMQEAEKLKAEGEYSR [Q19E]" recorded_number=5.84
construct_sequence="LNAELEEKMMQEAEKLKAQGEYTR [S23T]" recorded_number=4.98
construct_sequence="LNAELEEKMMQEAEKLKAQGEFSR [Y22F]" recorded_number=4.46
construct_sequence="LNAELEEPMMQEAEKLKAQGEYSR [K8P]" recorded_number=5.12
construct_sequence="LNAELEEKMMKEAEKLKAQGEYSR [Q11K]" recorded_number=4.94
construct_sequence="SNAELEEKMMQEAEKLKAQGEYSR [L1S]" recorded_number=5.21
construct_sequence="LNAELEEKMMQLAEKLKAQGEYSR [E12L]" recorded_number=2.92
construct_sequence="LNAELEEKMMWEAEKLKAQGEYSR [Q11W]" recorded_number=4.22
construct_sequence="LNAELEEKMMQEAEKLPAQGEYSR [K17P]" recorded_number=5.65
construct_sequence="LQAELEEKMMQEAEKLKAQGEYSR [N2Q]" recorded_number=5.63
construct_sequence="LNAELEEKMMQEAEKLGAQGEYSR [K17G]" recorded_number=4.93
construct_sequence="LNAEWEEKMMQEAEKLKAQGEYSR [L5W]" recorded_number=4.71
construct_sequence="LNAELEEQMMQEAEKLKAQGEYSR [K8Q]" recorded_number=5.02
construct_sequence="LNAELEEKMMQEAEWLKAQGEYSR [K15W]" recorded_number=4.41
construct_sequence="LNAELEEKMMQEEEKLKAQGEYSR [A13E]" recorded_number=5.71
construct_sequence="HNAELEEKMMQEAEKLKAQGEYSR [L1H]" recorded_number=4.89
construct_sequence="LNAELEEKMMQEAEKLKAQGNYSR [E21N]" recorded_number=4.79
construct_sequence="LNAELEEKMMQEAEKLKALGEYSR [Q19L]" recorded_number=2.99
construct_sequence="LNAETEEKMMQEAEKLKAQGEYSR [L5T]" recorded_number=5.47
construct_sequence="LNAELEEKMMEEAEKLKAQGEYSR [Q11E]" recorded_number=5.55
construct_sequence="LNYELEEKMMQEAEKLKAQGEYSR [A3Y]" recorded_number=4.2
construct_sequence="LNAELEEKMMQEAEKYKAQGEYSR [L16Y]" recorded_number=4.37
construct_sequence="LNAELEEKMMQEAEKLKAQGMYSR [E21M]" recorded_number=4.76
construct_sequence="LNAELEEKMMQEAEKLKAAGEYSR [Q19A]" recorded_number=5.24
construct_sequence="LNAELEEKMMQEAELLKAQGEYSR [K15L]" recorded_number=4.99
construct_sequence="LNAELEEKMMQRAEKLKAQGEYSR [E12R]" recorded_number=4.26
construct_sequence="LNAELEEKMMQEAEKLKAQGEESR [Y22E]" recorded_number=4.65
construct_sequence="LNAELEEKLMQEAEKLKAQGEYSR [M9L]" recorded_number=3.96
construct_sequence="CNAELEEKMMQEAEKLKAQGEYSR [L1C]" recorded_number=5.32
construct_sequence="LNAELEEKPMQEAEKLKAQGEYSR [M9P]" recorded_number=5.53
construct_sequence="LNAEMEEKMMQEAEKLKAQGEYSR [L5M]" recorded_number=5.21
construct_sequence="LNAELEEKMMQEAEKLKHQGEYSR [A18H]" recorded_number=4.15
construct_sequence="LNAELEEHMMQEAEKLKAQGEYSR [K8H]" recorded_number=5.36
